# PROCEDURE DETAILS: Cytotoxicity against HEK293 cells assessed as inhibition of cell proliferation at 1 umol/L after 72 hrs by MTT assay relative to control
# Format: cell-based
# RUN CONDITIONS: human
REPORTED PROPERTY: inhibition at 72 h, 1 µM (%)
Numeric only. Scale: %

Query block: Return reported inhibition at 72 h, 1 µM. Input compound: Cc1ncc([N+](=O)[O-])n1CC(O)CNC1CCN(c2c(F)cc3c(=O)c(C(=O)O)cn(C4CC4)c3c2Cl)C1 (stereo unspecified)
Result block: 5.3

====

# log10 MIC values compiled below
# Test system: Micrococcus luteus
# PROCEDURE DETAILS: Antibacterial activity against Micrococcus luteus ATCC 4698 after 24 hrs by microbroth dilution method
# Format: functional
# RUN CONDITIONS: NCTC 2665, 24 h
Quick note: numbers are log10 of MIC, with µg/mL as the unit.

Solved cases below.
{"MOLECULE": "Cc1nc(N2CCCCC2)c([N+](=O)[O-])n1CC(O)CN1CCN(c2cc3c(cc2F)c(=O)c(C(=O)O)cn3C2CC2)CC1 (stereo not drawn)", "REPORTED RESULT": 1.81}
{"MOLECULE": "CCn1cc(C(=O)O)c(=O)c2cc(F)c(N3CCNCC3)cc21", "REPORTED RESULT": 0.30}
{"MOLECULE": "Cc1nc(N2CCCC2)c([N+](=O)[O-])n1CC(O)CN1CCN(c2cc3c(cc2F)c(=O)c(C(=O)O)cn3C2CC2)CC1 (stereo not drawn)", "REPORTED RESULT": 2.11}
{"MOLECULE": "Cc1nc(N2CCCC2)c([N+](=O)[O-])n1CC(O)CNC1CCN(c2c(F)cc3c(=O)c(C(=O)O)cn(C4CC4)c3c2Cl)C1 (stereo not drawn)", "REPORTED RESULT": 0.60}
{"MOLECULE": "Cc1nc(N2CCCCC2)c([N+](=O)[O-])n1CC(O)CNC1CCN(c2c(F)cc3c(=O)c(C(=O)O)cn(C4CC4)c3c2Cl)C1 (stereo not drawn)", "REPORTED RESULT": 1.20}
{"MOLECULE": "Cc1ncc([N+](=O)[O-])n1CC(O)CNC1CCN(c2c(F)cc3c(=O)c(C(=O)O)cn(C4CC4)c3c2Cl)C1 (stereo not drawn)", "REPORTED RESULT": -0.60}

Query block: Check Micrococcus luteus data and give log10 MIC for CCn1cc(C(=O)O)c(=O)c2cc(F)c(N3CCN(CC(O)Cn4c(C)nc(N5CCCC5)c4[N+](=O)[O-])CC3)cc21 (stereo not drawn) .
Result block: 1.81

Query block: Check Micrococcus luteus data and give log10 MIC for O=C(O)c1cn(C2CC2)c2cc(N3CCN(CC4CO4)CC3)c(F)cc2c1=O (stereo not drawn) .
Result block: 0.30

Query block: Check Micrococcus luteus data and give log10 MIC for Cc1nc(N2CCOCC2)c([N+](=O)[O-])n1CC(O)CNC1CCN(c2c(F)cc3c(=O)c(C(=O)O)cn(C4CC4)c3c2Cl)C1 (stereo not drawn) .
Result block: 0.30

Query block: Check Micrococcus luteus data and give log10 MIC for Cc1ncc([N+](=O)[O-])n1CC(O)CN1CCN(c2cc3c(cc2F)c(=O)c(C(=O)O)cn3C2CC2)CC1 (stereo not drawn) .
Result block: 0.90

Query block: Check Micrococcus luteus data and give log10 MIC for CCn1cc(C(=O)O)c(=O)c2cc(F)c(N3CCN(CC(O)Cn4c(C)nc(N5CCCCC5)c4[N+](=O)[O-])CC3)cc21 (stereo not drawn) .
Result block: 2.11

Query block: Check Micrococcus luteus data and give log10 MIC for CCn1cc(C(=O)O)c(=O)c2cc(F)c(N3CCN(CC(O)Cn4c([N+](=O)[O-])cnc4C)CC3)cc21 (stereo not drawn) .
Result block: 1.20

Query block: Check Micrococcus luteus data and give log10 MIC for CCn1cc(C(=O)O)c(=O)c2cc(F)c(N3CCN(CC4CO4)CC3)cc21 (stereo not drawn) .
Result block: 0.90
